target: Hck (UniProt P08631); test: phosphorylation enrichment, bacterial display (enrichment ratio); higher = better substrate or ligand; peptides without Tyr show the background;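 further: 11-residue human phosphosite peptides and single-mutation variants displayed on the E. coli surface, counted by deep sequencing, each peptide's frequency after selection divided by its frequency in the unselected input library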;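 further: frequency after pTyr selection over input frequency; kinase dosed for 20-30% of maximal phosphorylation in three min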
Sequence (P08631 whole entry, looked up): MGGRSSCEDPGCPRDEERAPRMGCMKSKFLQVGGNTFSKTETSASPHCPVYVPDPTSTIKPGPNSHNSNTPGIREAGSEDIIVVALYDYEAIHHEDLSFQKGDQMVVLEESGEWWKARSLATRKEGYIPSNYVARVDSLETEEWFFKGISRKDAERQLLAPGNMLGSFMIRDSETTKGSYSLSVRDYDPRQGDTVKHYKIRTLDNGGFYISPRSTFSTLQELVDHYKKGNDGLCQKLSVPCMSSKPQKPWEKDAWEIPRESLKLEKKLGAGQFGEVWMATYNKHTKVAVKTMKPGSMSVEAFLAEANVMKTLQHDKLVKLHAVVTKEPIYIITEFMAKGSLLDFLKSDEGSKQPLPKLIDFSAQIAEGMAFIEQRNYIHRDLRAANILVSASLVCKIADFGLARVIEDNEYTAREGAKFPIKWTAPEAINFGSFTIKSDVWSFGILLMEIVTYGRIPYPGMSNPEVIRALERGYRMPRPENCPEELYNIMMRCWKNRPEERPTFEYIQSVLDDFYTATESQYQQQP
Each entry below lists one item and its recorded phosphorylation enrichment value.
Lab note: write the figure by itself, no unit.

sequence-string: GARGRYVMGGP [TNK1_Y277]
phosphorylation enrichment: 0.379

sequence-string: RLLVFYPWTQR [HBB_Y36_V35F]
phosphorylation enrichment: 0.557

sequence-string: KNEVFYQCPDQ [FBXO3_Y223]
phosphorylation enrichment: 1.69

Input: Can you look up the measured phosphorylation enrichment of AELKLYSGAQT [ZAP70_Y178_R175L] for me?
Output: 0.646

Input: Tell me the measured phosphorylation enrichment of KVGPGYLGSGG [RET_Y826] , please.
Output: 0.315

Input: Entry under review: NFFDLYGGEKF [PTPN11_Y66_D61N_YF] . Reported phosphorylation enrichment?
Output: 3.54

Input: Entry under review: SLALFYRKVFH [RBL1_Y792_YF] . Reported phosphorylation enrichment?
Output: 0.441

Input: I have this sequence here, MSSAGYRAAEG [COL6A3_Y543_T538M] , and I need its recorded phosphorylation enrichment.
Output: 0.375
